Hello, the source for this data is paper PMC6630517, in case you need it.

Tested on: chloroquine-sensitive (CQS) NF54 strain of Plasmodium falciparum
Method Summary: In vitro antiplasmodial assay (parasite lactate dehydrogenase), NF54 strain
Assay type: cell-based
Run Parameters: NF54 strain
Value Kind: activity in the sensitive strain (in words)

>>> value("C#Cc1ccc(-c2cn(CCNc3ccnc4cc(Cl)ccc34)nn2)cc1 [JR1]")
"good activity"
>>> value("C#Cc1ccc(-c2cn(CCNc3ccnc4cc(Cl)ccc34)nn2)cc1F [JR2]")
"good activity"
>>> value("C#Cc1ccc(-c2cn(CCNc3ccnc4cc(Cl)ccc34)nn2)c(F)c1 [JR3]")
"good activity"
